The reported numbers originate from patent US9856239B1.

# target.or.test.system: human URAT1 (Homo sapiens (Human), UniProt Q96S37)
# Sequence (Q96S37 whole entry): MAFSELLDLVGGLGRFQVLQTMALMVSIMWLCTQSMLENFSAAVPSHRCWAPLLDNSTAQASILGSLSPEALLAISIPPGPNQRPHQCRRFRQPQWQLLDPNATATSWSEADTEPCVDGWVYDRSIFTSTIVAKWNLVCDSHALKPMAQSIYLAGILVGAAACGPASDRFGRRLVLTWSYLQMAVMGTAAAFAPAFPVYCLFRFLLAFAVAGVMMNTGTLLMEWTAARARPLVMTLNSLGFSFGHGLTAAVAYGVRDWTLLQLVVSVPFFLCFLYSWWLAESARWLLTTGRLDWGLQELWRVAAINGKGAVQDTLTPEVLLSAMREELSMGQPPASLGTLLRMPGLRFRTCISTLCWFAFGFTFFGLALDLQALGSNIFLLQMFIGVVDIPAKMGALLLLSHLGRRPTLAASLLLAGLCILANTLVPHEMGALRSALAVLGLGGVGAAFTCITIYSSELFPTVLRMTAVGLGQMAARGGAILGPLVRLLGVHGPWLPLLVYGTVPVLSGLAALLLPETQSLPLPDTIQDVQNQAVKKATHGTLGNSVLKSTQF
# assay.details: Inhibition of 14C-uric acid absorption in URAT1 cell model (HEK-293T cells transfected with human URAT1)
# protocol.conditions: HEK-293T cells transfected with human URAT1, 14C-uric acid uptake, 5 min, 37 degrees; read-out: URAT1 IC50 Activity level
Give measured IC50 for each item. Keep answers brief.

Answered cases to consult:
compound	measured
N#Cc1ccc(-c2cnccc2SCCC(=O)O)c2ccccc12	100 to 1000 nM
[2H]C([2H])([2H])C(C)(Sc1ccncc1-c1ccc(C#N)c2ccccc12)C(=O)O (stereo not shown)	< 100 nM
N#Cc1ccc(-c2cnccc2SCC2(C(=O)O)CC2)c2ccccc12	< 100 nM

Any idea what IC50 came out for N#Cc1ccc(-c2cnccc2OCC2(CC(=O)O)CC2)cc1 on human URAT1 (Homo sapiens (Human), UniProt Q96S37)?
> 1000 nM
